# tgt: Metabotropic glutamate receptor 4 (Homo sapiens, UniProt Q14833)
# Sequence (Q14833 whole entry): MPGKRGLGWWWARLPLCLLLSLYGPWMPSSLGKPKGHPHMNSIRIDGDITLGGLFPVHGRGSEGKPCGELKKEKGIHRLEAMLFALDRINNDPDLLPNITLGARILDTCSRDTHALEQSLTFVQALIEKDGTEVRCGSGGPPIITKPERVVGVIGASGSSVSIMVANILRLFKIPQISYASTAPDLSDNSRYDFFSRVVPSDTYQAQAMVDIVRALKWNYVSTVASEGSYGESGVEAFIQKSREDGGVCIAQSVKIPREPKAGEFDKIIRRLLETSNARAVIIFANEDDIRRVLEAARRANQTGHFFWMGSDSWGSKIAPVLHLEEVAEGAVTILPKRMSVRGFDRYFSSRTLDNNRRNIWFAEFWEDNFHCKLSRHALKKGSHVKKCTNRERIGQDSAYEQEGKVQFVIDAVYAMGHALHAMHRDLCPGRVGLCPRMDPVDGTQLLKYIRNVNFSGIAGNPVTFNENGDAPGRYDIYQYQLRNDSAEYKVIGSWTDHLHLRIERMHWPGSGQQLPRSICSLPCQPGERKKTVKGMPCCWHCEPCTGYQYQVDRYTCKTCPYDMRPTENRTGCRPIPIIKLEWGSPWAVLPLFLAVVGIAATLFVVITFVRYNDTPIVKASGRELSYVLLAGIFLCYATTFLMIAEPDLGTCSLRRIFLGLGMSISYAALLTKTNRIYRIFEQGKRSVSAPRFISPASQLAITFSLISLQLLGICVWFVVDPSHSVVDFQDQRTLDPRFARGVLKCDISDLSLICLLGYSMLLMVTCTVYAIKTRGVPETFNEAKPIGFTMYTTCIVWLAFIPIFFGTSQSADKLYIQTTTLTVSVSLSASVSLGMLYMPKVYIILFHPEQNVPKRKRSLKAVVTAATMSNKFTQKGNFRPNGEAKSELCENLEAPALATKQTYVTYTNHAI
# method.description: Effective concentration which exhibit agonistic activity at metabotropic glutamate 4 receptor stably expressed in AV12 cells
observable: pEC50
In textbook form, pEC50 equals minus log to base ten of the concentration in mol/L.

compound	observable	value.reported
NC1(C(=O)O)CC1CP(=O)(O)O (stereo in doubt; 3)	pEC50	5.10

// below: pEC50 requested for another compound
Problem: Note down pEC50 recorded for NC1(C(=O)O)CC1CP(=O)(O)O (stereo in doubt; 4)
Result: 6.24
